B1: TPR t1 (parent)
chain: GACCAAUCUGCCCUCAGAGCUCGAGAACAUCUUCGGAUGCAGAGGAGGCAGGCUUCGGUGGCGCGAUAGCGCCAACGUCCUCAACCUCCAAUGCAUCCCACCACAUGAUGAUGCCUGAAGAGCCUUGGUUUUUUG

- Variants of: B1
- Assay comment: polymerase ribozyme fitness, log enrichment relative to wild type (log ratio); higher = more active; in vitro selection for triplet polymerase activity
Readout kind: polymerase ribozyme fitness (log ratio)
Numbers only.

{"columns": ["Input sequence", "Assay result"],
 "data": [
  ["GACCAAUCUGCCCUCAGAGCGCGAGAACAUCUUCGGAUGCAGAGGAGGCAGGCUUUGGUGGCGCGAUAGCGCCAACGGCCUCAACUUCCAAUGCAUCCCACCACAUGAUGAUGCCUGAAGGGCCUUGGUUUUUUG [U21G C56U U78G C86U A121G]", -0.445]
]}

Go through the items and report each one's polymerase ribozyme fitness (log ratio).
1. GACCAAUCUGCCCUCAGAGCUCGAGAACAUCUUCAGAUGCAGAGGAGGCAGGCUUCGGUGGCGCGAUAGCGCCAACGUCCUCAACCUCCAAUGCAUCCGACCACAUGAUGAUGCCUGAAGAGCCUUGGUUUUGUG [G35A C99G U133G]
2. GACCAAUCUGACCUCAGAGCUCGAGAACAUCUUCGGAUGCAGAGGAGGCAGGCUUCGGUGGCGCGAUAGCGCCAACGUCCCCAACCUCCGAUGCAUCCCACCACAUGAUGAUGCCUGAAGAGCCUUGGUUUUUUG [C11A U81C A90G]
3. GACCAAUAUGCCCUCAGAGCUCGAGAACAUCUUCGGAUGCAGAGGAGGCAGGCUUCGGGGGCGCGAUAGCGCCAACGUCCUCAACCUCCAAUGCAUCCCACCACAUGAUGAUGUCUGAAGAGCCUUGGUUUUUUG [C8A U59G C114U]
4. GACCAAUCUGCCCUCAGAGCUCGAGAACAUCUUCGGAUGCAGAGGAGGCAGGCUUCGGUGGCGCGAUAGCGCGAACGUCCUCAACCUCCAAUGCAUCCCACCACAUGAUGAUACCUGAAGAGCCUUGGUUUUUUG [C73G G113A]
5. GACCAAUCUGCCCUCAGAGCUCGAGAACAUCUUCGGACGCAUAGGAGGCAGGCUUCGGUGGGGCGAUAGCGCCAACGUCCUCAACCUCCAAUGCAUCCCACCACAUGAUGAUGCCUGAAGAGCCUUGGUUUUUUG [U38C G42U C62G]

[reply]
1. -5.8
2. -2.45
3. -0.559
4. -1.29
5. -5.61

// input: 4 variants below; output: polymerase ribozyme fitness (log ratio) for each
1. GACCAUUCUGCCCUCAGAUCUCGAGAACAUCUUCGGAUGCAGAGGAGGCAGGCUUCGGUGGCGCGAUAGCGCCAACGUCCUCAACCUCCAAUGCAUCCCACCACAUGAUGAUGCCUGAAGAGCCUUGGUUUUUUG [A6U G19U]
2. GACCAAUCUGCCCUCAGAGCUCGAGAACAUCUUCGGAUGCAGAUGAGGCAGGCUUCGGUGGCCCGAUAGCGCCAACGACCUCAACCUCCAAUGCAUCCCACCACAUGAUGAUGCCUGAAGAGCCUUGGUUUUUUG [G44U G63C U78A]
3. GACCAAUCUGCCCUCAGAGCUCGAGAAGAUCUUCGGAUGAAGAGGAGGCAGGCUUCGGUGGCGCGAUAGCGCCAACGUCCUCAACCUCCAAUGUAUCCCACCACAUGAUCAUGCCUGAAGAGCCUUGGUUUUUUG [C28G C40A C94U G110C]
4. GACCAAUAUGCCCUCAGAGCUCGAGAACAUCUUCGGAUGCAGAGGAGGCAGGCUUCGGUGACGCGAUAGCGCCAACGUCCUCAACCUCCAAUGCAUCCCACCACAUGAUGAUGCCUGAAGAGCCUUGGUUUUUUG [C8A G61A]

[reply]
1. -2.29
2. -0.651
3. -0.668
4. -0.475
